# Applied conditions: in n-propanol, 328.15 K
Assay endpoint: solubility (mole fraction)
Please reply with the number alone, leaving off any unit.

Lab book: solubility (mole fraction) of CNC(=O)c1cc(Oc2ccc(N)cc2)ccn1 noted as 0.0638

* * *

# Applied conditions: in ethyl acetate, 308.15 K
Assay endpoint: solubility (mole fraction)
Simply state the number, no unit and no words.

Record CNC(=O)c1cc(Oc2ccc(N)cc2)ccn1 , field solubility (mole fraction): 0.151

* * *

# Applied conditions: in n-propanol, 313.15 K
Assay endpoint: solubility (mole fraction)

Measured solubility (mole fraction), CNC(=O)c1cc(Oc2ccc(N)cc2)ccn1 : 0.0308

* * *

# Applied conditions: in n-propanol, 283.15 K
Assay endpoint: solubility (mole fraction)

Briefly, solubility (mole fraction) measured for CNC(=O)c1cc(Oc2ccc(N)cc2)ccn1 : 0.00593
